- System: MT4
- Protocol Text: Compound was tested for its anti HIV-1 activity in MT-4 cells.
- Type: functional, cell-based
- Condition Set: Homo sapiens
Observed Property: IC50 (nM)
Give bare numbers, in nM.

Entry CC(C)=CCN1Cc2cc(Cl)cc3[nH]c(=S)n(c23)C[C@@H]1C , IC50 reported as 42
